# Test: Mouse pharmacokinetic (PK) study, parent compound and psilocin metabolite in plasma
# Format: in vivo
# Study conditions: male, C57Bl/6, mouse, plasma, po, 3 mg/kg, parent compound; 3 mg/kg p.o.; AUC0-tlast used; M37 (i.v. group) considered as an outlier; mean ± SD
# Text: Briefly, the procedure was as follows. […] 19, 2022.
Parameter: bioavailability

{"Substance smiles": "CN(C)CCc1c[nH]c2cccc(OC(=O)c3ccc(Br)cc3)c12", "Parameter": "bioavailability", "Measured result": "3.18%"}
